Cited source: patent US20210301025A1

- subject-of-test: T1, human c-Met on cells (NCI-H441, NCI-H292, U87-MG) (human, UniProt P08581 25-1390)
- T1 construct: Endogenous c-Met of human tumor cell lines; also called hepatocyte growth factor receptor
- method-description: NCI-H441 cell binding, anti-His fluorescence

binder	EC50 / nM
P114AR7P94-A3 (designed binder, not shown: small tags and cut ends) LPAPKNLVVSRVTEDSARLSWTAPDAAFDSFWIRYFEFLGSGEAIVLTVPGSERSYDLTGLKPGTEYVVNIMGVKGGKISPPLSAIFTT	1.4
P114AR7P93-D11 (designed binder, not shown: small tags and cut ends) LPAPKNLVVSRVTEDSARLSWTAPDAAFDSFWIRYFEFLGSGEAIVLTVPGSERSYDLTGLKPGTEYVVGINGVKGGYISYPLSAIFTT	2.3
P114AR7P95-H8 (designed binder, not shown: small tags and cut ends) LPAPKNLVVSRVTEDSARLSWTAPDAAFDSFWIRYFEFVSKGEAIVLTVPGSERSYDLTGLKPGTEYVVNIMGVKGGSISPPLSAIFTT	4.1
P114AR7P93-G8 (designed binder, not shown: small tags and cut ends) LPAPKNLVVSRVTEDSARLSWTAPDAAFDSFWIRYFEFLGSGEAIVLTVPGSERSYDLTDLKPGTEYGVTINGVKGGRVSTPLSAIFTT	3.8
P114AR7P92-G8 (designed binder, not shown: small tags and cut ends) LPAPKNLVVSRVTEDSARLSWTAPDAAFDSFVIRYFEFLGSGEAIVLTVPGSERSYDLTGLKPGTEYVVQILGVKGGYISIPLSAIFTT	5.9
P114AR7P95-G7 (designed binder, not shown: small tags and cut ends) LPAPKNLVVSRVTEDSARLSWTAPDAAFDSFWIRYFELLSTGEAIVLTVPGSERSYDLTGLKPGTEYVVNIMGVKGGSISPPLSAIFTT	11.3
P114AR7P94-E5 (designed binder, not shown: small tags and cut ends) LPAPKNLVVSRVTEDSARLSWTAPDAAFDSFWIRYFEFLGSGEAIVLTVPGSERSYDLTGLKPGTEYAVNIMGVKGGRVSVPLSAIFTT	3.4
P114AR7P92-F6 (designed binder, not shown: small tags and cut ends) LPAPKNLVVSRVTEDSARLSWTAPDAAFDSFWIRYFEFLGSGEAIVLTVPGSERSYDLTGLKPGTEYVVNILGVKGGGLSVPLSAIFTT	4.9
P114AR7P92-H5 (designed binder, not shown: small tags and cut ends) LPAPKNLVVSRVTEDSARLSWTAPDAAFDSFWIRYLEFLLGGEAIVLTVPGSERSYDLTGLKPGTEYVVQIMGVKGGTVSPPLSAIFTT	22
